B1: RHOBTB3 (parent)
chain: STTEGIQLAKELGATYLELHSLDD

- Variants of: B1
- Method notes: protein stability index of a GFP-peptide fusion (GPS, HEK-293T) (PSI 1-6); higher = more stable;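 further: lentivirally expressed fusions sorted by FACS into six bins by GFP to DsRed ratio, PSI derived from sequencing read proportions per bin multiplied by bin number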
- Condition description: c terminus: a fixed tail appended
Could you please report measured protein stability index for the items listed next?
One number for each entry.

Use these answered entries as a reference point.
>>> obs_value("STTNGIQLAKELGATYLELHSLDD")
3.58
>>> obs_value("STTEGIQLAKELGHTYLELHSLDD")
4.1
>>> obs_value("STTEGIQLAKECGATYLELHSLDD")
3.96
>>> obs_value("STTEGIQLAKELGPTYLELHSLDD")
4.28

Challenge: Endpoint output: protein stability index of STTEWIQLAKELGATYLELHSLDD . Value?
Response given: 1.56
